Reference source: patent US20210198366A1

Target: T1, cynomolgus monkey B7-H7 expressed on HEK-293T cells (cynomolgus monkey)
T1 construct: also called cyno B7-H7; cells expressing cyno B7-H7
T1 chain: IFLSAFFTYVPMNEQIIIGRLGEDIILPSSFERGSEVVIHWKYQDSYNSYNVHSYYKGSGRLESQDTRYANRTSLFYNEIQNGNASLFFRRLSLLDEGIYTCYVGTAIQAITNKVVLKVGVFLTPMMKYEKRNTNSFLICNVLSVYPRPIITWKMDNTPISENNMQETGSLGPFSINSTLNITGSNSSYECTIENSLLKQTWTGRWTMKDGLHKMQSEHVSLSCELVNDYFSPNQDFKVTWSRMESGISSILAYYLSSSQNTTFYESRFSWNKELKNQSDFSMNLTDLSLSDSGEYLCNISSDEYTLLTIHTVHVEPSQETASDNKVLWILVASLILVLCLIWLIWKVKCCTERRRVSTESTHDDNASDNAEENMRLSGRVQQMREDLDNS
Test: FACS on HEK-293T cells expressing cyno B7-H7
What MFI was measured for each of the following?

Guide cases for MFI, answers given:
Binder: anti-B7-H7 antibody 28F5 (antibody, V domains shown, Mouse hybridoma antibody) VH: QVQLKESGPGLVAPSQSLSITCTVSGFSLTGYGVNWVRQPPGKGLEWLGVIWGDGSTDYNSVLKSRLSISKDNSKSQVFLKMNSLQTDDTARYYCAREATEYLYWYFDVWGAGTTVTVSS VL: DIVLTQSPASLAVSLGQRATISCRASESVEYYGSSLMQWYQQKPGQPPKLLIFAASNVESGVPPRFSGSGSGTDFNLNIHPVDEDDIAMYFCQQGRRVPWTFGGGTKLEIK
Reported Measurement: 165 MFI
//
Binder: anti-B7-H7 antibody 5B10 (antibody, V domains shown, Mouse hybridoma antibody) VH: EVQLQQSGPELEKPGASVKISCKASGYSFTGYNMNWVKQSNGKSLEWIGNIDPYSGGSTYNQKFKGKATLTVDKSSSTASLQLKSLTSEDSSVYYCARSFYDAPYLTYWGQGTLVTVSA VL: DIQMTQSPTSLSASVGETVTITCRASENIFIYLAWYQQKQGKSPQLLVFNAKTLAEGVPSRFSGSGSGTQFSLKINSLRPEDFGTYYCQHHYGTPPTFGGGTKLEV
Reported Measurement: 93 MFI
//
Binder: anti-B7-H7 antibody 5F7 (antibody, V domains shown, Mouse hybridoma antibody) VH: QEQLQQPGTELVKPGASVKISCKASGYTFSSYSMHWVKLTPGQGLEWMGTIYPGNENTSYNQKFKGKATLTADKSSSTAYMQLSSLTSEDSAVYYCARGGYYFDYWGQGTTLTVSS VL: DIVMTQSHKFLSTSVGDRVSITCKASQDVSTAVAWYQQKPGQSPKLLIYWASTRHTGVSDRFTGSGSGTDFTLTISSVQAEDLALYYCQQHFDIPYWFGGGTKLEIK
Reported Measurement: 195 MFI
//
Binder: anti-B7-H7 antibody 16D5 (antibody, V domains shown, Mouse hybridoma antibody) VH: QVQLQQSAAELARPGASVKMSCKASGYTFTTYTMHWVKQRPGQGLEWIGYINPSRGYSDYSQKFQGKSTLTTDKSSNTAYIQLTSLTSEDSAVYFCARGGYDFDYWGQGTTLTVSS VL: DIVMTQSHKFMSTSVGDRVSITCKASQDVGTAVAWYQQKPGQSPKLLLYWASTRHTGVPDRFTGSGSGTDYTLTISSVQAEDLALYHCQQHFITPYTFGGGTKLEIK
Reported Measurement: 199 MFI

Quick note, MFI for anti-B7-H7 antibody 1D3 (antibody, V domains shown, Mouse hybridoma antibody) VH: EVQLQQSGPELEKPGASVKISCKASGYSFTGYNMNWVKESNGRSLEWIGNIDPYSGGSTYNQKFKGKATMTVDKSSSTAYMQLKSLTSEDSAVYYCARSVYDAPWLAHWGQGTLVTVSA VL: DIQMTQSPASLSASVGETVTITCRASENIYIYLAWYQQKQGKSPQLLVYNAKTLAEGVPSRFSGSGSGTQFSLKINRLQPEDFGNYYCQHHYGTPPTFGGGTKLEIK landed at 214 MFI
